target desc: Src recombinant enzyme, N-terminally His6 tagged full-length human protein (Homo sapiens, UniProt P12931)
Construct: Src recombinant enzyme was purchased as N-terminally His6 tagged full-length human protein; His6 (N); purchased
Sequence (P12931 whole entry): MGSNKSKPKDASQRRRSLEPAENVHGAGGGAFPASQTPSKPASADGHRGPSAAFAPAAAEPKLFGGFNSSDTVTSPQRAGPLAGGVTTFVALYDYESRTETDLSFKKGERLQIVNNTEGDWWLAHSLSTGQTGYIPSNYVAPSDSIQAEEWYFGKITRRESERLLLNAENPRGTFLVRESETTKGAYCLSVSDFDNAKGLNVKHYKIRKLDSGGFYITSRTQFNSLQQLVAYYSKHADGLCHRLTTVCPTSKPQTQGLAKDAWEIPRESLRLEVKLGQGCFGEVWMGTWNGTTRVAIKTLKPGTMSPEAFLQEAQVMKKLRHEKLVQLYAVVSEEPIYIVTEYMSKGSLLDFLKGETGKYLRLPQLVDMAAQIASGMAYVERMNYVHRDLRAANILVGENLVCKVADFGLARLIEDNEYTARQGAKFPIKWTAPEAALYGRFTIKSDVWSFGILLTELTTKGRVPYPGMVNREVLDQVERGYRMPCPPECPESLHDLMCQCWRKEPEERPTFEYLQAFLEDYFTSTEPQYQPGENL
assay notes: SRC kinase inhibition assay (AlphaScreen)
Type: biochemical
conditions used: 80 μM ATP, 90 minutes at 30 degree Celsius
measurement type: IC50

[[record]]
smiles_input = "Cc1ccc(-c2nn(C(C)(C)CNC(N)=S)c3ncnc(N)c23)cc1"
test_result = "1 to 100 nM"

[[record]]
smiles_input = "Cc1ccc(-c2nn(C(C)(C)CNC(=O)CCOc3ccccc3)c3ncnc(N)c23)cc1"
test_result = "100 to 1000 nM"

[[record]]
smiles_input = "Cc1ccc(-c2nn(C(C)(C)CNC(=O)c3nc(Cl)ccc3Cl)c3ncnc(N)c23)cc1"
test_result = "100 to 1000 nM"

[[record]]
smiles_input = "Cc1ccc(-c2nn(C(C)(C)CNC(=O)c3cccc(Br)n3)c3ncnc(N)c23)cc1"
test_result = "100 to 1000 nM"

